# Target of assay: human GPR84 receptor (Homo sapiens)
# Construct: host or cells: HEK293, transiently transfected
# Assay name: Gαi biosensor BRET assay (GPR84 antagonism vs agonist ZQ-16)
# Type: cell-based
# Measurement setup: tested at 2 μM (concentration code A); HEK293 cells; 200 nmol/L agonist ZQ-16
Could you please report measured inhibition at 2 µM for the items listed next?

Examples with their reported inhibition at 2 µM follow.
CNS(=O)(=O)C1CN(C(=O)COc2cc(C)n([C@H](C)c3ccc(C#CC4CC4)cc3)c(=O)c2)C1	> 75%
Cc1cc(OCC(=O)N2CC[C@H](C#N)C2)cc(=O)n1[C@H](C)c1ccc(C#CC2CC2)cc1	> 75%
Cc1cc(OCC(=O)N2CC[C@H](F)C2)cc(=O)n1[C@H](C)c1ccc(C#CC2CC2)cc1	> 75%

State recorded inhibition at 2 µM for all listed compounds.
1. Cc1cc(OCC(=O)N2CCC(C)(C)C2)cc(=O)n1[C@H](C)c1ccc(C#CC2CC2)cc1
2. [2H]C1(C#Cc2ccc([C@@H](C)n3c(C)cc(OCC(=O)N(C)C)cc3=O)cc2)CC1
3. Cc1cc(OCC(=O)N2CC[C@@H](F)C2)cc(=O)n1[C@H](C)c1ccc(C#CC2CC2)cc1
4. Cc1cc(OCC(=O)N2CC(C)C2)cc(=O)n1[C@H](C)c1ccc(C#CC2CC2)cc1
5. Cc1cc(OCc2nnnn2C)cc(=O)n1[C@H](C)c1ccc(C#CC2CC2)cc1
6. Cc1cc(OCc2nncn2C)cc(=O)n1[C@H](C)c1ccc(C#CC2CC2)cc1

["> 75%", "> 75%", "> 75%", "> 75%", "> 75%", "> 75%"]

State recorded inhibition at 2 µM for all listed compounds.
1. Cc1cc(OCC(=O)N2CCC2)cc(=O)n1[C@H](C)c1ccc(C#CC2CC2)cc1
2. CCN(CC)C(=O)COc1cc(C)n([C@H](C)c2ccc(C#CC3CC3)cc2)c(=O)c1

> 75%
> 75%

State recorded inhibition at 2 µM for all listed compounds.
1. Cc1cc(OCC(=O)N2CCC[C@@H]2C#N)cc(=O)n1[C@H](C)c1ccc(C#CC2CC2)cc1
2. Cc1cc(OCC(=O)N(C)CC(=O)O)cc(=O)n1[C@H](C)c1ccc(C#CC2CC2)cc1
3. Cc1cc(OCC(=O)N2CC3(CCC3)C2)cc(=O)n1[C@H](C)c1ccc(C#CC2CC2)cc1
4. Cc1cc(OCC(=O)N2CC[C@H](C3CC3)C2)cc(=O)n1[C@H](C)c1ccc(C#CC2CC2)cc1

1. > 75%
2. > 75%
3. > 75%
4. > 75%

====

# Target of assay: human GPR84 receptor (Homo sapiens, UniProt Q9NQS5)
# Sequence (Q9NQS5 whole entry): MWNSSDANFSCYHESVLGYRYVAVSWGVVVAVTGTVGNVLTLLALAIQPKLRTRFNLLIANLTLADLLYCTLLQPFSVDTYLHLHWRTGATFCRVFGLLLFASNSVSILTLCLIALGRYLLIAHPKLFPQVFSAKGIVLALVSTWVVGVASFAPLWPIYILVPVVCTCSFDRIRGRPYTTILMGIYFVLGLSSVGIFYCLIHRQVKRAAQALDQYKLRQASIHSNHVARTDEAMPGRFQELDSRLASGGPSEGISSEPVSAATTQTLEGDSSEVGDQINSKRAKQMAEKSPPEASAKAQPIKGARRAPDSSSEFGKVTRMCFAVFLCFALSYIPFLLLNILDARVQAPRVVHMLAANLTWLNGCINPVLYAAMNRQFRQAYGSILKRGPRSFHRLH
# Assay name: Gαi biosensor BRET assay (GPR84 antagonism vs agonist ZQ-16)
# Measurement setup: Gαi biosensor BRET assay, HEK293 cells, 200 nmol/L agonist ZQ-16
pIC50: −log10 of the molar value.
Could you please report measured pIC50 for the items listed next?

Examples with their reported pIC50 follow.
CNS(=O)(=O)[C@@H]1CCN(C(=O)COc2cc(C)n([C@H](C)c3ccc(C#CC4CC4)cc3)c(=O)c2)C1	≥ 6.52
Cc1cc(OCC(=O)N2CCCC2)cc(=O)n1[C@H](C)c1ccc(C#CC2CC2)c(F)c1	≥ 6.52
Cc1cc(OCC(=O)N(C)C2CC(F)(F)C2)cc(=O)n1[C@H](C)c1ccc(C#CC2CC2)cc1	6.00 to 6.52
Cc1cc(OCC(=O)N(C)C)cc(=O)n1[C@H](C)c1ccc(C#CC2CC2)c(O)c1	6.00 to 6.52
Cc1cc(OCC(=O)N2CCC[C@@H]2C(F)(F)F)cc(=O)n1[C@H](C)c1ccc(C#CC2CC2)cc1	≥ 6.52

State recorded pIC50 for all listed molecules.
1. Cc1cc(OCc2ncnn2C)cc(=O)n1[C@H](C)c1ccc(C#CC2CC2)cc1
2. Cc1cc(OCC(=O)N2CC(C(=O)O)C2)cc(=O)n1[C@H](C)c1ccc(C#CC2CC2)cc1

["≥ 6.52", "≥ 6.52"]

====

# Target of assay: human GPR84 receptor (Homo sapiens)
# Construct: host or cells: HEK293, transiently transfected
# Assay name: Gαi biosensor BRET assay (GPR84 antagonism vs agonist ZQ-16)
# Format: cell-based
# Measurement setup: tested at 10 μM (concentration code D); HEK293 cells; 200 nmol/L agonist ZQ-16
Could you please report measured inhibition at 10 µM for the items listed next?

Examples with their reported inhibition at 10 µM follow.
Cc1noc(COc2cc(C)n([C@H](C)c3ccc(C#CC4CC4)c(F)c3)c(=O)c2)n1 [Compound I-18]	> 75%
Cc1cc(OCc2ncccn2)cc(=O)n1[C@H](C)c1ccc(C#CC2(C(F)(F)F)CC2)c(F)c1 [Compound I-53]	50 to 75%
Cc1cc(OCC(=O)N2CC[C@H](C(=O)O)[C@H]2C)cc(=O)n1[C@H](C)c1ccc(C#CC2CC2)cc1 [Compound I-304]	> 75%

State recorded inhibition at 10 µM for all listed molecules.
1. Cc1cc(OCc2ncccn2)cc(=O)n1[C@H](C)c1ccc(OC(C)C)cc1 [Compound I-129]
2. Cc1cc(OCC(=O)N(C)C)cc(=O)n1[C@H](C)c1ccc(C#CC2(O)CC2)cc1 [Compound I-210]
3. Cc1cc(OCC(=O)N(C)C)c(O)c(=O)n1[C@H](C)c1ccc(C#CC2CC2)cc1 [Compound I-286]
4. COc1cncnc1COc1cc(C)n([C@H](C)c2ccc(C#CC3CC3)cc2)c(=O)c1 [Compound I-4]
5. Cc1cc(C#CC2CC2)cc(=O)n1[C@H](C)c1ccc(C#CC2CC2)cc1 [Compound I-90]
6. COC(COc1cc(C)n([C@H](C)c2ccc(C#CC3CC3)cc2)c(=O)c1)C(C)(C)C (stereo partly drawn) [Compound I-277]
7. Cc1cc(OCC(=O)N2CCC3(CC2)CN(C)C3)cc(=O)n1[C@H](C)c1ccc(C#CC2CC2)cc1 [Compound I-203]

["< 25%", "> 75%", "50 to 75%", "> 75%", "50 to 75%", "> 75%", "50 to 75%"]

====

# Target of assay: human GPR84 receptor (Homo sapiens)
# Construct: host or cells: HEK293, transiently transfected
# Assay name: Gαi biosensor BRET assay (GPR84 antagonism vs agonist ZQ-16)
# Type: cell-based
# Measurement setup: tested at 10 μM (concentration code D); HEK293 cells; 200 nmol/L agonist ZQ-16
Readout name: inhibition at 10 µM

Examples with their reported inhibition at 10 µM follow.
Cc1cc(OCc2ncccn2)cc(=O)n1[C@H](C)c1ccc(C#CC#CC2CC2)cc1	< 25%
Cc1cc(OCC(=O)N2CC3CCC2CO3)cc(=O)n1[C@H](C)c1ccc(C#CC2CC2)cc1 (stereo partly shown)	> 75%

State recorded inhibition at 10 µM for all listed molecules.
1. CCCCCCOc1ccc([C@@H](C)n2c(C)cc(OCc3ncccn3)cc2=O)cc1
2. Cc1cc(OCC(=O)N(C)C)cc(=O)n1[C@H](C)c1ccc(C#CC2(C)CC2)cc1
3. Cc1cc(OCC(=O)N(C)C)cc(=O)n1C(C)c1ccncc1 (stereo not shown)
4. Cc1cc(OCC(=O)N(C)C)c(Br)c(=O)n1[C@H](C)c1ccc(C#CC2CC2)cc1
5. Cc1nc(OCC(=O)N2CCCC2)cc(=O)n1[C@@H](C)c1ccc(C#CC2CC2)cc1
6. Cc1cc(OCc2ncccc2C(F)(F)F)cc(=O)n1[C@H](C)c1ccc(C#CC2CC2)cc1
7. Cc1cc(OCC(=O)O)cc(=O)n1[C@@H](C)c1ccc(C#CC2CC2)cc1
8. CCC#Cc1ccc([C@@H](C)n2c(C)cc(OCC(=O)N(C)C)cc2=O)cc1

["< 25%", "> 75%", "< 25%", "50 to 75%", "25 to 50%", "> 75%", "< 25%", "> 75%"]

State recorded inhibition at 10 µM for all listed molecules.
1. Cc1cc(OCC(=O)N(C)C)cc(=O)n1[C@H](C)c1ccc(C#CC2CC2)c(C2CC2)c1
2. Cc1cc(OCC2(N(C)C)COC2)cc(=O)n1[C@H](C)c1ccc(C#CC2CC2)c(F)c1
3. Cc1cc(OCC(=O)N(C)C)cc(=O)n1[C@H](C)c1ccc(C#CC2CC2)c(N(C)C)c1
4. C[C@H](c1ccc(C#CC2CC2)cc1)n1c(CO)cc(OCC(=O)N(C)C)cc1=O
5. Cc1cc(OCC(=O)NC2CN(C)C2)cc(=O)n1[C@H](C)c1ccc(C#CC2CC2)cc1
6. Cc1cc(OCC(=O)N2CC[C@H](S(=O)(=O)N(C)C)C2)cc(=O)n1[C@H](C)c1ccc(C#CC2CC2)cc1
7. Cc1cc(OCC(=O)N2CCC(F)(F)CC2)cc(=O)n1[C@H](C)c1ccc(C#CC2CC2)c(F)c1
8. Cc1cc(COCC(=O)N(C)C)cc(=O)n1[C@H](C)c1ccc(C#CC2CC2)cc1

1: > 75%; 2: 50 to 75%; 3: > 75%; 4: > 75%; 5: 50 to 75%; 6: > 75%; 7: > 75%; 8: 50 to 75%

State recorded inhibition at 10 µM for all listed molecules.
1. CNS(=O)(=O)COc1cc(C)n([C@H](C)c2ccc(C#CC3CC3)cc2)c(=O)c1
2. Cc1cc(OCC(=O)N(C)C)cc(=O)n1[C@H](C)c1ccc(C#CC(=O)O)cc1
3. Cc1cc(/C=C2\SC(=O)NC2=O)cc(=O)n1[C@H](C)c1ccc(C#CC2CC2)cc1
4. Cc1cc(OCc2ncncc2Cl)cc(=O)n1[C@H](C)c1ccc(C#CC2CC2)cc1

1: 50 to 75%; 2: < 25%; 3: > 75%; 4: > 75%
